All figures here come from patent US20210388087A1.

Below, each entry is listed with its recorded fold change of affinity.
# STUDY_TARGET: T1, Human CD137 ECD (human)
# T1 construct: entry includes C-terminal His-tag and biotin acceptor peptide; also called human CD137 extracellular domain; 4-1BB
# T1 sequence (chain, as listed by the source limits assumed): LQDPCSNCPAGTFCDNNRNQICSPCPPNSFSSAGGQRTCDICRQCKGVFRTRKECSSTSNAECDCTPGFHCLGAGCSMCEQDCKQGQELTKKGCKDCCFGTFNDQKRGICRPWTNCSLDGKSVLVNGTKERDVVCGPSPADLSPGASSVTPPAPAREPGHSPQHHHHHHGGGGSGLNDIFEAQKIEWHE
# ASSAY_PROTOCOL: Biacore SPR, vs parent H183/L072
State just the number; it will be interpreted in fold.

[
  {
    "BINDER": "H183/L072 VL R29H (antibody, name in Kabat numbering, V domains shown, Dual-Ig) VH: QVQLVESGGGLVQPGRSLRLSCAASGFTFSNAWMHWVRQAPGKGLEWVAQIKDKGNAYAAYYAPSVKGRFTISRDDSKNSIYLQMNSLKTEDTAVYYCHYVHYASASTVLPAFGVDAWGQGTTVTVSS VL: DIVMTQSPLSLPVTPGEPASISCQASQELVHMNHNTYLHWYQQKPGQAPRLLIYKVSNRFPGVPDRFSGSGSGTDFTLKISRVEAEDVGVYYCAQGTSVPFTFGQGTKLEIK",
    "ATTRIBUTE_MEASURED": "fold change of affinity",
    "ASSAY_VALUE": 0.8
  }
]

Query block: Query (binder): H183/L072 VL Q24F (antibody, name in Kabat numbering, V domains shown, Dual-Ig) VH: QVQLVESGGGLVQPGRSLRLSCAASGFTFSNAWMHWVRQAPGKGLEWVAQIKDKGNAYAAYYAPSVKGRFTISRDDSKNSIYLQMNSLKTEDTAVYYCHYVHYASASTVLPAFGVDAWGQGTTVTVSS VL: DIVMTQSPLSLPVTPGEPASISCFASQELVHMNRNTYLHWYQQKPGQAPRLLIYKVSNRFPGVPDRFSGSGSGTDFTLKISRVEAEDVGVYYCAQGTSVPFTFGQGTKLEIK ; field requested: fold change of affinity
Result block: 0.9
